testDetails: Mouse maximum tolerable dose experiment (acute toxicity)
Format: in vivo, Kunming mice
cond: both sexes, mouse, in vivo, po, 5 g/kg; Kunming mice, intragastric administration, once
valueKind: LD50 at 7 days

[ask] Dear colleague, I am looking for the recorded LD50 at 7 days of the following molecule: CON=C(C(=O)NC1C(=O)N2C(C(=O)OCOC(=O)C3N4C(=O)CC4S(=O)(=O)C3(C)C)=C(COC(N)=O)CSC12)c1ccco1 (stereo not shown)
[reply] > 5000 mg/kg
